- Tested on: NCI-H838;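 further: growth inhibition of human NCI-H838 cells, read out by a cell viability assay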
- EXPERIMENTAL PROTOCOL: cells
- Type: functional, cell-based
- CONDITION DESCRIPTION: Homo sapiens
- Description: SANGER: Inhibition of human NCI-H838 cell growth in a cell viability assay.
REPORTED METRIC: IC50

{"columns": ["COMPOUND", "REPORTED METRIC", "RECORDED VALUE"],
 "data": [
  ["O=c1[nH]c2ccccc2n1C1CCN(Cc2ccc(-c3nc4cc5[nH]cnc5cc4nc3-c3ccccc3)cc2)CC1", "IC50", "> 2560 nM"]
]}

----------
- System: KNS-62;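 further: inhibition of cell growth, read out with a cell viability assay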
- EXPERIMENTAL PROTOCOL: cells
- Type: functional, cell-based
- CONDITION DESCRIPTION: Homo sapiens
- Description: SANGER: Inhibition of human KNS-62 cell growth in a cell viability assay.
pIC50: −log10 of the molar value.

{"columns": ["COMPOUND", "pIC50"],
 "data": [
  ["Cn1cc(/C=C2\\C(=O)Nc3cccnc32)c2ccccc21", "< 5.70"]
]}

----------
- Test system: OVCAR-3;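 further: growth inhibition of human OVCAR-3 cells, determined by a cell viability assay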
- EXPERIMENTAL PROTOCOL: cells
- Assay type: functional, cell-based
- CONDITION DESCRIPTION: Homo sapiens
- Description: SANGER: Inhibition of human OVCAR-3 cell growth in a cell viability assay.
Form field: IC50 (one value per entry).
REPORTED METRIC: IC50 (µM)

{"columns": ["MOLECULE", "TESTED TARGET", "CENSORING SIGN", "RECORDED VALUE"],
 "data": [
  ["O=c1[nH]c2ccccc2n1C1CCN(Cc2ccc(-c3nc4cc5[nH]cnc5cc4nc3-c3ccccc3)cc2)CC1", "OVCAR-3", "=", 1.84],
  ["CC[C@@]1(O)C(=O)OCc2c1cc1n(c2=O)Cc2cc3ccccc3nc2-1 [CAMPTOTHECIN]", "OVCAR-3", ">", 0.1],
  ["CC(C)=CC[C@@H](O)C1=CC(=O)c2c(O)ccc(O)c2C1=O [SHIKONIN]", "OVCAR-3", "=", 0.383],
  ["N#C/C(=C1/Nc2ccccc2S1)c1ccnc(NCCc2cccnc2)n1", "OVCAR-3", ">", 8],
  ["CCCS(=O)(=O)Nc1ccc(F)c(C(=O)c2c[nH]c3ncc(Cl)cc23)c1F [PLX-4720]", "OVCAR-3", ">", 10],
  ["Fc1cc(-c2cc[nH]/c(=N/c3ccc(-n4cnc(N5CCOCC5)n4)cc3)n2)cc(N2CCOCC2)c1", "OVCAR-3", "=", 0.567]
]}

----------
- Test system: MV4-11;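 further: cell viability readout measuring growth inhibition of human MV-4-11 cells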
- EXPERIMENTAL PROTOCOL: cells
- Assay type: functional, cell-based, MV-4-11
- CONDITION DESCRIPTION: Homo sapiens
- Description: SANGER: Inhibition of human MV-4-11 cell growth in a cell viability assay.
With a cut-off of 1 µM, any IC50 strictly below it is called Y; any IC50 meeting it or above is called N.

{"columns": ["COMPOUND", "CAT"],
 "data": [
  ["Cc1ccc(NC(=O)c2cccc(C(C)(C)C#N)c2)cc1Nc1ccc2ncn(C)c(=O)c2c1", "N"],
  ["NC(=O)c1ncn([C@@H]2O[C@H](COP(=O)(O)O)[C@@H](O)[C@H]2O)c1N", "N"],
  ["C/C(O)=C(\\C#N)C(=O)Nc1cc(Br)ccc1Br", "N"],
  ["CC(C)=CC[C@@H](O)C1=CC(=O)c2c(O)ccc(O)c2C1=O [SHIKONIN]", "Y"],
  ["N#C/C(=C1/Nc2ccccc2S1)c1ccnc(NCCc2cccnc2)n1", "N"],
  ["CO[C@@]12[C@H](COC(N)=O)C3=C(C(=O)C(C)=C(N)C3=O)N1C[C@@H]1N[C@@H]12 [MITOMYCIN]", "Y"],
  ["COc1cc(Nc2c(C#N)cnc3cc(OCCCN4CCN(C)CC4)c(OC)cc23)c(Cl)cc1Cl [BOSUTINIB]", "N"],
  ["C/C=C(/C)C(=O)O[C@H]1C(C)=C2[C@H]([C@@H]1OC(=O)CCCCCCC)[C@@](C)(OC(C)=O)C[C@H](OC(=O)CCC)[C@@]1(O)[C@H]2OC(=O)[C@@]1(C)O [THAPSIGARGIN]", "Y"],
  ["CC[C@]1(O)C[C@@H]2CN(CCc3c([nH]c4ccccc34)[C@@](C(=O)OC)(c3cc4c(cc3OC)N(C)[C@H]3[C@@](O)(C(=O)OC)[C@H](OC(C)=O)[C@]5(CC)C=CCN6CC[C@]43[C@@H]65)C2)C1 [VINBLASTINE]", "Y"],
  ["CCn1c(-c2nonc2N)nc2cnc(Oc3cccc(NC(=O)c4ccc(OCCN5CCOCC5)cc4)c3)cc21 [GSK-269962A]", "Y"]
]}

----------
- System: CAL-51;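 further: human CAL-51 cell line, growth inhibition read out via a cell viability assay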
- EXPERIMENTAL PROTOCOL: cells
- Format: functional, cell-based
- CONDITION DESCRIPTION: Homo sapiens
- Description: SANGER: Inhibition of human CAL-51 cell growth in a cell viability assay.
pIC50: −log10 of the molar value.

{"columns": ["COMPOUND", "pIC50"],
 "data": [
  ["Fc1cc(-c2cc[nH]/c(=N/c3ccc(-n4cnc(N5CCOCC5)n4)cc3)n2)cc(N2CCOCC2)c1", 6.66],
  ["O=C(CCCCCCC(=O)Nc1ccccc1)NO", 5.66],
  ["C/C=C(/C)C(=O)O[C@H]1C(C)=C2[C@H]([C@@H]1OC(=O)CCCCCCC)[C@@](C)(OC(C)=O)C[C@H](OC(=O)CCC)[C@@]1(O)[C@H]2OC(=O)[C@@]1(C)O", 9.01],
  ["CC(C)=CC[C@@H](O)C1=CC(=O)c2c(O)ccc(O)c2C1=O", 7.68]
]}

----------
- Test system: OVCAR-8
- EXPERIMENTAL PROTOCOL: cells
- Format: functional, cell-based
- CONDITION DESCRIPTION: Homo sapiens
- Description: SANGER: Inhibition of human OVCAR-8 cell growth in a cell viability assay.
Reported IC50 values for a set of molecules
REPORTED METRIC: IC50

{"columns": ["COMPOUND", "RECORDED VALUE"],
 "data": [
  ["CC(=O)c1c(C)c2cnc(Nc3ccc(N4CCNCC4)cn3)nc2n(C2CCCC2)c1=O", "> 4000 nM"],
  ["CC[C@]1(O)C[C@@H]2CN(CCc3c([nH]c4ccccc34)[C@@](C(=O)OC)(c3cc4c(cc3OC)N(C)[C@H]3[C@@](O)(C(=O)OC)[C@H](OC(C)=O)[C@]5(CC)C=CCN6CC[C@]43[C@@H]65)C2)C1", "6.55 nM"],
  ["C[C@]12O[C@H](C[C@]1(O)CO)n1c3ccccc3c3c4c(c5c6ccccc6n2c5c31)CNC4=O", "753 nM"],
  ["C[C@]1(c2nc3c(C(N)=O)cccc3[nH]2)CCCN1", "> 5000 nM"],
  ["CC[C@@]1(O)C(=O)OCc2c1cc1n(c2=O)Cc2cc3ccccc3nc2-1", "7.27 nM"],
  ["Cn1c(=O)n(-c2ccc(C(C)(C)C#N)cc2)c2c3cc(-c4cnc5ccccc5c4)ccc3ncc21", "31.3 nM"]
]}

----------
Below, each entry is listed alongside its reported log10 IC50.
- Tested on: NCI-H2052
- EXPERIMENTAL PROTOCOL: cells
- Assay type: functional, cell-based
- CONDITION DESCRIPTION: Homo sapiens
- Description: SANGER: Inhibition of human NCI-H2052 cell growth in a cell viability assay.
REPORTED METRIC: log10 IC50 (log10 of the value in µM)

{"columns": ["COMPOUND", "REPORTED METRIC", "RECORDED VALUE"],
 "data": [
  ["CC[C@@]1(O)C(=O)OCc2c1cc1n(c2=O)Cc2cc3ccccc3nc2-1", "log10 IC50", -1.55],
  ["NC(=O)c1ncn([C@@H]2O[C@H](COP(=O)(O)O)[C@@H](O)[C@H]2O)c1N", "log10 IC50", 3.17],
  ["CO[C@@]12[C@H](COC(N)=O)C3=C(C(=O)C(C)=C(N)C3=O)N1C[C@@H]1N[C@@H]12", "log10 IC50", 0.30],
  ["CCNC(=O)c1noc(-c2cc(C(C)C)c(O)cc2O)c1-c1ccc(CN2CCOCC2)cc1", "log10 IC50", -0.98],
  ["CC[C@]1(O)C[C@@H]2CN(CCc3c([nH]c4ccccc34)[C@@](C(=O)OC)(c3cc4c(cc3OC)N(C)[C@H]3[C@@](O)(C(=O)OC)[C@H](OC(C)=O)[C@]5(CC)C=CCN6CC[C@]43[C@@H]65)C2)C1", "log10 IC50", -1.61]
]}

----------
- Tested on: SW-620;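 further: growth inhibition of human SW-620 cells, measured by a cell viability assay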
- EXPERIMENTAL PROTOCOL: cells
- Assay type: functional, cell-based
- CONDITION DESCRIPTION: Homo sapiens
- Description: SANGER: Inhibition of human SW620 cell growth in a cell viability assay.
pIC50: −log10 of the molar value.
REPORTED METRIC: pIC50

{"columns": ["COMPOUND", "CENSORING SIGN", "RECORDED VALUE"],
 "data": [
  ["COc1cc(Nc2c(C#N)cnc3cc(OCCCN4CCN(C)CC4)c(OC)cc23)c(Cl)cc1Cl", "<", 5.70],
  ["CC(C)=CC[C@@H](O)C1=CC(=O)c2c(O)ccc(O)c2C1=O", "=", 6.45],
  ["C/C=C(/C)C(=O)O[C@H]1C(C)=C2[C@H]([C@@H]1OC(=O)CCCCCCC)[C@@](C)(OC(C)=O)C[C@H](OC(=O)CCC)[C@@]1(O)[C@H]2OC(=O)[C@@]1(C)O", "=", 8.52],
  ["NC(=O)c1ncn([C@@H]2O[C@H](COP(=O)(O)O)[C@@H](O)[C@H]2O)c1N", "<", 2.70],
  ["C[C@]1(c2nc3c(C(N)=O)cccc3[nH]2)CCCN1", "<", 5.30],
  ["CCNC(=O)c1noc(-c2cc(C(C)C)c(O)cc2O)c1-c1ccc(CN2CCOCC2)cc1", "=", 7.72]
]}
